Data origin, for the record: patent US20240182536A1

Would you mind telling me the reported HEK-Blue activity, +100 nM BP, DF-10000 of each entry?
Target or test system: T1, interleukin 18 binding protein (IL-18BP) (UniProt O95998 31-194); further: unit not given here
T1 sequence (looked up): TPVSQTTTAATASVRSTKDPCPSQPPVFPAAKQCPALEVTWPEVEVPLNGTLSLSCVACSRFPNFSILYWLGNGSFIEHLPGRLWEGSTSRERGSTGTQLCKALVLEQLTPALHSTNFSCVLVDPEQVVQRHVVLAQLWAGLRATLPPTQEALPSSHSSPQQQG
Test: cell-based or functional assay
Answers are plain numbers.

Kindly give each listed record's HEK-Blue activity, +100 nM BP, DF-10000.
1. IL-18 variant K53H, S55Y, Q56H (ligand) YFGKLESKLSVIRNLNDQVLFIDQGNRPLFEDMTDSDMRDNAPRTIFIISMYHDYHPRGMAVTISVKSEKISTLSSENKIISFKEMNPPDNIKDTKSDIIFFQRSVPGHDNKMQFESSSYEGYFLASEKERDLFKLILKKEDELGDRSIMFTVQNED
2. IL-18 variant K53H, S55Y (ligand) YFGKLESKLSVIRNLNDQVLFIDQGNRPLFEDMTDSDMRDNAPRTIFIISMYHDYQPRGMAVTISVKSEKISTLSSENKIISFKEMNPPDNIKDTKSDIIFFQRSVPGHDNKMQFESSSYEGYFLASEKERDLFKLILKKEDELGDRSIMFTVQNED
3. IL-18 variant K53D, S55Q, H109Y (ligand) YFGKLESKLSVIRNLNDQVLFIDQGNRPLFEDMTDSDMRDNAPRTIFIISMYDDQQPRGMAVTISVKSEKISTLSSENKIISFKEMNPPDNIKDTKSDIIFFQRSVPGYDNKMQFESSSYEGYFLASEKERDLFKLILKKEDELGDRSIMFTVQNED
4. IL-18 variant K53H, S55Q (ligand) YFGKLESKLSVIRNLNDQVLFIDQGNRPLFEDMTDSDMRDNAPRTIFIISMYHDQQPRGMAVTISVKSEKISTLSSENKIISFKEMNPPDNIKDTKSDIIFFQRSVPGHDNKMQFESSSYEGYFLASEKERDLFKLILKKEDELGDRSIMFTVQNED
5. IL-18 variant S36F, N41E, K53W (ligand) YFGKLESKLSVIRNLNDQVLFIDQGNRPLFEDMTDFDMRDEAPRTIFIISMYWDSQPRGMAVTISVKSEKISTLSSENKIISFKEMNPPDNIKDTKSDIIFFQRSVPGHDNKMQFESSSYEGYFLASEKERDLFKLILKKEDELGDRSIMFTVQNED
6. IL-18 variant K53D, S55N, H109I (ligand) YFGKLESKLSVIRNLNDQVLFIDQGNRPLFEDMTDSDMRDNAPRTIFIISMYDDNQPRGMAVTISVKSEKISTLSSENKIISFKEMNPPDNIKDTKSDIIFFQRSVPGIDNKMQFESSSYEGYFLASEKERDLFKLILKKEDELGDRSIMFTVQNED

1: 0.12; 2: 0.1; 3: 0.12; 4: 0.14; 5: 0.09; 6: 0.1

Record IL-18 variant K53D, S55E (ligand) YFGKLESKLSVIRNLNDQVLFIDQGNRPLFEDMTDSDMRDNAPRTIFIISMYDDEQPRGMAVTISVKSEKISTLSSENKIISFKEMNPPDNIKDTKSDIIFFQRSVPGHDNKMQFESSSYEGYFLASEKERDLFKLILKKEDELGDRSIMFTVQNED , field HEK-Blue activity, +100 nM BP, DF-10000: 0.11
